- System: ICR strain mice
- assay name: Pulmonary toxicity (pulmonary fibrosis) in mice, intraperitoneal injection
- Type: in vivo
- stated conditions: 5 mg/kg i.p. once a day for 10 days; autopsy after 5 weeks

compound	Incidence of pulmonary fibrosis, %
Cc1c(N)nc(C(CC(N)=O)NCC(N)C(N)=O)nc1C(=O)NC(C(=O)NC(C)C(O)C(C)C(=O)NC(C(=O)NCCc1nc(-c2nc(C(=O)NCCC[N+](C)(C)CCC[N+](C)(C)CCCN(Cc3ccccc3)Cc3ccccc3)cs2)cs1)C(C)O)C(OC1OC(CO)C(O)C(O)C1OC1OC(CO)C(O)C(OC(N)=O)C1O)c1cnc[nH]1 (centres unmarked)	0%
Cc1c(N)nc(C(CC(N)=O)NCC(N)C(N)=O)nc1C(=O)NC(C(=O)NC(C)C(O)C(C)C(=O)NC(C(=O)NCCc1nc(-c2nc(C(=O)NCCCN(C)CCCNCc3ccc(Cl)c(Cl)c3)cs2)cs1)C(C)O)C(OC1OC(CO)C(O)C(O)C1OC1OC(CO)C(O)C(OC(N)=O)C1O)c1cnc[nH]1 (centres unmarked)	11%

---

- Tested on: ICR strain mice
- assay name: Pulmonary toxicity (pulmonary fibrosis) in mice, intraperitoneal injection
- Assay type: in vivo
- stated conditions: 5 mg/kg i.p. once a day for 10 days; reference of the ratio not stated

compound	measured on	Grade of pulmonary fibrosis, Ratio
Cc1c(N)nc(C(CC(N)=O)NCC(N)C(N)=O)nc1C(=O)NC(C(=O)NC(C)C(O)C(C)C(=O)NC(C(=O)NCCc1nc(-c2nc(C(=O)NCCCN(C)CCCNCc3ccc(OCc4ccccc4)c(OCc4ccccc4)c3)cs2)cs1)C(C)O)C(OC1OC(CO)C(O)C(O)C1OC1OC(CO)C(O)C(OC(N)=O)C1O)c1cnc[nH]1 (stereo not shown) [compound 15]	ICR strain mice	0.05
Cc1c(N)nc(C(CC(N)=O)NCC(N)C(N)=O)nc1C(=O)NC(C(=O)NC(C)C(O)C(C)C(=O)NC(C(=O)NCCc1nc(-c2nc(C(=O)NCCCN3CCN(CCCNCc4ccc(Cl)cc4)CC3)cs2)cs1)C(C)O)C(OC1OC(CO)C(O)C(O)C1OC1OC(CO)C(O)C(OC(N)=O)C1O)c1cnc[nH]1 (stereo not shown) [compound 44]	ICR strain mice	0.00
Cc1c(N)nc(C(CC(N)=O)NCC(N)C(N)=O)nc1C(=O)NC(C(=O)NC(C)C(O)C(C)C(=O)NC(C(=O)NCCc1nc(-c2nc(C(=O)NCCCN(C)CCCN(Cc3ccc(OCc4ccccc4)c(OCc4ccccc4)c3)Cc3ccc(OCc4ccccc4)c(OCc4ccccc4)c3)cs2)cs1)C(C)O)C(OC1OC(CO)C(O)C(O)C1OC1OC(CO)C(O)C(OC(N)=O)C1O)c1cnc[nH]1 (stereo not shown) [Compound No. 34]	ICR strain mice	0.00
Cc1c(N)nc(C(CC(N)=O)NCC(N)C(N)=O)nc1C(=O)NC(C(=O)NC(C)C(O)C(C)C(=O)NC(C(=O)NCCc1nc(-c2nc(C(=O)NCCCN(C)CCCN)cs2)cs1)C(C)O)C(OC1OC(CO)C(O)C(O)C1OC1OC(CO)C(O)C(OC(N)=O)C1O)c1cnc[nH]1 (stereo not shown) [APMP, reference compound]	ICR strain mice	2.15
Cc1c(N)nc(C(CC(N)=O)NCC(N)C(N)=O)nc1C(=O)NC(C(=O)NC(C)C(O)C(C)C(=O)NC(C(=O)NCCc1nc(-c2nc(C(=O)NCCCN(C)CCCNCC3CCCCCCCCCCCC3)cs2)cs1)C(C)O)C(OC1OC(CO)C(O)C(O)C1OC1OC(CO)C(O)C(OC(N)=O)C1O)c1cnc[nH]1 (stereo not shown) [compound 47]	ICR strain mice	0.00
Cc1c(N)nc(C(CC(N)=O)NCC(N)C(N)=O)nc1C(=O)NC(C(=O)NC(C)C(O)C(C)C(=O)NC(C(=O)NCCc1nc(-c2nc(C(=O)NCCCN(C)CCCN(Cc3ccccc3)Cc3ccccc3)cs2)cs1)C(C)O)C(OC1OC(CO)C(O)C(O)C1OC1OC(CO)C(O)C(OC(N)=O)C1O)c1cnc[nH]1 (stereo not shown) [compound 27]	ICR strain mice	0.08
Cc1c(N)nc(C(CC(N)=O)NCC(N)C(N)=O)nc1C(=O)NC(C(=O)NC(C)C(O)C(C)C(=O)NC(C(=O)NCCc1nc(-c2nc(C(=O)NCCCN(C)CCCNCc3ccc(Cl)cc3Cl)cs2)cs1)C(C)O)C(OC1OC(CO)C(O)C(O)C1OC1OC(CO)C(O)C(OC(N)=O)C1O)c1cnc[nH]1 (stereo not shown) [compound 8]	ICR strain mice	0.08
